biological target: human mAChR M4 (Homo sapiens); construct: expressed in transfected cells; host or cells: CHO-K1 (American Type Culture Collection), stably expressing hM4 and Gqi5; test: mAChR M4 cell-based functional assay: calcium mobilization (Fluo-4, FDSS), potentiation of EC20 acetylcholine response in hM4-Gqi5 CHO-K1 cells; settings: CHO-K1, % ACh maximum at 30 μM; human M4
QUANTITY_MEASURED: Emax at 30 µM (%)

COMPOUND	READING_UNIT	Emax at 30 µM
Cc1cc(=O)n2nc(N3CCc4ncc(C(F)(F)F)cc4C3)c(C)c(C)c2n1	%	77
Cc1c(N2CCc3ncc(-c4ccc(Cl)nc4Cl)cc3C2)nn2c(=O)cc(C(F)F)nc2c1C	%	82
Cc1cc2nccc(=O)n2nc1N1CCc2ncc(NCc3cncn3C)cc2C1	%	73
Cc1cc(=O)n2nc(N3CCc4ncc(-c5ccc(C)o5)cc4C3)c(C)cc2n1	%	85
Cc1cc2ncc(C3CCCC3)c(=O)n2nc1N1CCc2ncc(C(F)(F)F)cc2C1	%	75
Cc1cc2nccc(=O)n2nc1N1CCc2ncc(N3CC(C)Oc4ccccc43)cc2C1 (stereo not drawn)	%	93
Cc1cc2nc(C)c(F)c(=O)n2nc1N1CCc2ncc(N3CCCn4nccc43)cc2C1	%	84
Cc1cc(=O)n2nc(N3CCc4ncc(-c5ccsc5)cc4C3)c(C)c(C)c2n1	%	89
Cc1c(N2CCc3ncc(-c4cncc(Cl)c4)cc3C2)nn2c(=O)cc(C(F)F)nc2c1C	%	82

###

molecular target: human mAChR M4 (Homo sapiens, UniProt P08173); construct: expressed in transfected cells; host or cells: CHO-K1 (American Type Culture Collection), stably expressing hM4 and Gqi5; test: mAChR M4 cell-based functional assay: calcium mobilization (Fluo-4, FDSS), potentiation of EC20 acetylcholine response in hM4-Gqi5 CHO-K1 cells; settings: CHO-K1, % ACh maximum at 30 μM; human M4
QUANTITY_MEASURED: Emax at 30 µM (%)

MOLECULE	SYSTEM	READING_UNIT	ENDPOINT_RESULT
Cc1c(N2CCc3ncc(C4CCCCC4)cc3C2)nn2c(=O)ccnc2c1C [Compound 1-430]	human mAChR M4 (Homo sapiens, UniProt P08173)	%	75
COCc1cc(=O)n2nc(N3CCc4ncc(-c5ncc(C)cc5C)cc4C3)c(C)cc2n1 [Compound 1-381]	human mAChR M4 (Homo sapiens, UniProt P08173)	%	83
Cc1ccc(-c2cnc3c(c2)CN(c2nn4c(=O)cc(C)nc4cc2C)CC3)c(C)c1 [Compound 1-292]	human mAChR M4 (Homo sapiens, UniProt P08173)	%	92
Cc1c(N2CCc3ncc(-c4ccc(-n5ccnc5)nc4)cc3C2)nn2c(=O)ccnc2c1C [Compound 1-98]	human mAChR M4 (Homo sapiens, UniProt P08173)	%	86
Cc1cc(=O)n2nc(N3CCc4ncc(-c5ccc(F)c(F)c5)cc4C3)c(C)cc2n1 [Compound 1-213]	human mAChR M4 (Homo sapiens, UniProt P08173)	%	82

###

Target: human mAChR M4 (Homo sapiens)
Construct: expressed in transfected cells; host or cells: CHO-K1 (American Type Culture Collection), stably expressing hM4 and Gqi5
Sequence (P08173 1-479): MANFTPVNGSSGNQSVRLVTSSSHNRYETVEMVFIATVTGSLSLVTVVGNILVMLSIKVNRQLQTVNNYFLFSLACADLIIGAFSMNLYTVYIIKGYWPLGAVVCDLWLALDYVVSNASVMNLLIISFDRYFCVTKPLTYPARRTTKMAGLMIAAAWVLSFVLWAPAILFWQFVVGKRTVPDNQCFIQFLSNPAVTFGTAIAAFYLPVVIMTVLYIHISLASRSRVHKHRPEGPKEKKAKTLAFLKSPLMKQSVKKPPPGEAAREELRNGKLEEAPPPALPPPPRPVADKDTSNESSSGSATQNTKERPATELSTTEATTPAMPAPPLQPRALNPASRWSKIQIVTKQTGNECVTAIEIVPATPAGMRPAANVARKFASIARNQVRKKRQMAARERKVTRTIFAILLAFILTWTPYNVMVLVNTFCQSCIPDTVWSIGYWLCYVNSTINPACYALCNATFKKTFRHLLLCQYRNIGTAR
Test: mAChR M4 cell-based functional assay: calcium mobilization (Fluo-4, FDSS), potentiation of EC20 acetylcholine response in hM4-Gqi5 CHO-K1 cells
Details: CHO-K1, % ACh maximum at 30 μM; human M4
Protocol: […] Calcium flux was measured using the Functional Drug Screening System (FDSS) 6000 or 7000 (Hamamatsu Corporation, Tokyo, Japan) as an increase in the fluorescent static ratio. […] Agonist activity was analyzed as a concentration-dependent increase in calcium mobilization upon compound addition. Positive allosteric modulator activity was analyzed as a concentration-dependent increase in the EC20 acetylcholine response. […]
QUANTITY_MEASURED: Emax at 30 µM (%)

COMPOUND	READING_UNIT	Emax at 30 µM
Cc1c(N2CCc3ncc(N4CC(C)(C)CC4=O)cc3C2)nn2c(=O)ccnc2c1C	%	68
Cc1cc2nccc(=O)n2nc1N1CCc2ncc(N3CCc4ncccc43)cc2C1	%	86
Cc1cc2nccc(=O)n2nc1N1CCc2ncc(N3CCOC(c4ccc(F)cc4)C3)cc2C1 (centres unmarked)	%	84
Cc1ccncc1-c1cnc2c(c1)CN(c1nn3c(=O)ccnc3c(C)c1C)CC2	%	99
COCc1c(C)c(N2CCc3ncc(C(F)(F)F)cc3C2)nn2c(=O)ccnc12	%	66
COc1ccccc1Nc1cnc2c(c1)CN(c1nn3c(=O)ccnc3cc1C)CC2	%	87
Cc1cc(=O)n2nc(N3CCc4ncc(N5CCCn6nc(C)cc65)cc4C3)c(C)cc2n1	%	87
Cc1ccc(-c2cnc3c(c2)CN(c2nn4c(=O)cc(C)nc4c(C)c2C)CC3)cc1	%	97
Cc1cc2nccc(=O)n2nc1N1CCc2ncc(-c3cnn(C(F)F)c3C)cc2C1	%	81
COCc1cc(=O)n2nc(N3CCc4ncc(-c5ccncc5)cc4C3)c(C)cc2n1	%	78

P. Cc1cc2nc(C)c(C)c(=O)n2nc1N1CCc2ncc(C(F)(F)F)cc2C1
Q. Cc1cc(=O)n2nc(N3CCc4ncc(-c5ccccc5OC(F)(F)F)cc4C3)c(C)c(C)c2n1
Smaller Emax at 30 µM value, P vs Q ? Output the label that corresponds to your choice. Q
(Q: 54%, P: 81%)

###

molecular target: human mAChR M4 (Homo sapiens); construct: expressed in transfected cells; host or cells: CHO-K1 (American Type Culture Collection), stably expressing hM4 and Gqi5; assay: mAChR M4 cell-based functional assay: calcium mobilization (Fluo-4, FDSS), potentiation of EC20 acetylcholine response in hM4-Gqi5 CHO-K1 cells; conditions: CHO-K1, % ACh maximum at 30 μM; human M4
QUANTITY_MEASURED: Emax at 30 µM (%)

Use these answered entries as a reference point.
CHEMICAL_SMILES	Emax at 30 µM (%)
Cc1c(N2CCc3ncc(-c4cncc(F)c4)cc3C2)nn2c(=O)ccnc2c1C	93
Cc1cc2nc(C)c(Cl)c(=O)n2nc1N1CCc2ncc(Nc3ccncc3F)cc2C1	95
COc1cc(F)ccc1Nc1cnc2c(c1)CN(c1nn3c(=O)ccnc3cc1C)CC2	62
Cc1c(N2CCc3ncc(C(F)(F)F)cc3C2)nn2c(=O)cc(C(C)C)nc2c1C	102
Cc1c(N2CCc3ncc(-c4cc(F)cc(F)c4F)cc3C2)nn2c(=O)ccnc2c1C	67

a. Cc1ccc(-c2cnc3c(c2)CN(c2nn4c(=O)cc(C(=O)NCc5cncs5)nc4cc2C)CC3)cn1
b. Cc1cc2nccc(=O)n2nc1N1CCc2ncc(NS(=O)(=O)C3CC3)cc2C1
Response body: label of entry with the larger Emax at 30 µM; valid values a , b . Output the label that corresponds to your choice. a
(a: 74%, b: 48%)

A. Cc1c(N2CCc3ncc(-c4cnc5ccccc5c4)cc3C2)nn2c(=O)ccnc2c1C
B. Cc1c(N2CCc3ncc(-c4ccccc4Cl)cc3C2)nn2c(=O)ccnc2c1C
Response body: label of entry with the larger Emax at 30 µM; valid values A , B . Output the label that corresponds to your choice. B
(B: 89%, A: 60%)

###

biological target: human mAChR M4 (Homo sapiens); experiment: mAChR M4 cell-based functional assay: calcium mobilization (Fluo-4, FDSS), potentiation of EC20 acetylcholine response in hM4-Gqi5 CHO-K1 cells; settings: potentiation of EC20 acetylcholine response, calcium mobilization, human M4
pEC50: −log10 of the molar value.
QUANTITY_MEASURED: pEC50

CHEMICAL_SMILES	pEC50
Cc1cc2nc(C(=O)N3CC4(COC4)C3)cc(=O)n2nc1N1CCc2ncc(C(F)(F)F)cc2C1	5.95

A. Cc1cc2nccc(=O)n2nc1N1CCc2ncc(-c3ccsc3C=O)cc2C1
B. Cc1c(N2CCc3ncc(-n4cccn4)cc3C2)nn2c(=O)ccnc2c1C
Smaller pEC50 value, A vs B ? Output the label that corresponds to your choice. A
(A: 6.09, B: 6.50)
